Where do the numbers come from? From patent US20190100534A1.

- System: E. coli J53 Alone
- ASSAY EXPLANATION: MIC determination, isogenic E. coli strains
- Assay type: cell-based
- CONDITION PARAMETERS: J53 Alone, Table 4-2; CAMH broth, 20 μM Apo-Transferrin, 37° C., 18 hours
ASSAY ENDPOINT: Mimimum Inhibitory Concentrations, J53 Alone (microgram/mL)
Kindly provide the numeric value in microgram/mL only, without the unit symbol.

# return recorded Mimimum Inhibitory Concentrations, J53 Alone for entry Cn1c[n+](Cc2ccc(C=CC3=C(C(=O)O)N4C(=O)[C@@H](NC(=O)/C(=N\OC(C)(C)C(=O)O)c5csc(N)n5)[C@H]4SC3)cc2)cc1C(=O)Nc1ccc(O)c(O)c1 (mixture of isomers) [Compound 411]
0.5

# return recorded Mimimum Inhibitory Concentrations, J53 Alone for entry CC(C)(O/N=C(\C(=O)N[C@@H]1C(=O)N2C(C(=O)O)=C(/C=C/c3ccc(C[n+]4ccn(-c5ccc(O)c(O)c5)c4)cc3)CS[C@H]12)c1csc(N)n1)C(=O)O [Compound 414]
0.25

# return recorded Mimimum Inhibitory Concentrations, J53 Alone for entry CC(C)(O/N=C(\C(=O)N[C@@H]1C(=O)N2C(C(=O)O)=C(C=Cc3ccc(C[N+]4(C)CCc5cc(O)c(O)cc5C4)cc3[N+](=O)[O-])CS[C@H]12)c1csc(N)n1)C(=O)O (mixture of isomers) [Compound 445]
1
